target-desc: T1, TIGIT (T cell immunoreceptor with Ig and ITIM domains) (human, UniProt Q495A1 22-141, limits assumed)
T1 construct: also called hTIGIT; human TIGIT
T1 sequence (looked up): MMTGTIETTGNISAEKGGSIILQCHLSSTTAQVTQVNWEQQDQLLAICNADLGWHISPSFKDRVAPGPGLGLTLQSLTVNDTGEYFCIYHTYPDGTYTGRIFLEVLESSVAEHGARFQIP
assay-name: SPR, VHH-V5-His
Consider the following binders; for each one, report its koff.
Quick reminder: number only, in s⁻¹, skip the unit.

Record TIGIT-30-40 VHH-V5-His (VHH, not shown: V5-His tag) VHH: EVQLVESGGGLVQAGGSLRLSCAASGFTFSGNWMGWFRQAPGKEREWVVGISSGGSTHYADSVKGRFTISADNAKNTVYLQMNSLKPEDTAVYYCAADVWYGSTWRNWGQGTQVTVSS , field koff: 0.006

Record TIGIT-29-34 VHH-V5-His (VHH, not shown: V5-His tag) VHH: EVQLVESGGGLVQAGGSLRLSCAASGFTFRNYAMGWFRQAPGKEREFVSSISSSSSRTSYADSVKGRFTISADNAKNTVYLQMNSLKPEDTAVYYCAARLWGTWTAGDYDYWGQGTQVTVSS , field koff: 0.03

Record TIGIT-29-12 VHH-V5-His (VHH, not shown: V5-His tag) VHH: EVQLVESGGGLVQAGGSLRLSCAASGSTFSSYAMGWFRQAPGKEREFVAAITWSGTRTNYADSVKGRFTISADNAKNTVYLQMNSLKPEDTAVYYCAAAAWTIYTYDSWGQGTQVTVSS , field koff: 0.1

Record TIGIT-29-07 VHH-V5-His (VHH, not shown: V5-His tag) VHH: EVQLVESGGGLVQAGGSLRLSCAASGSIFSNYAMGWFRQAPGKEREFVATISRGGTRTNYADSVKGRFTISADNAKNTVYLQMNSLKPEDTAVYYCAAAAWTIYAYNYWGQGTQVTVSS , field koff: 0.004

Record TIGIT-30-01 VHH-V5-His (VHH, not shown: V5-His tag) VHH: EVQLVESGGGLVQAGGSLRLSCAASGFAFSSYWMGWFRQAPGKERELVAARNSGGNTNYADSVKGRFTISADNAKNTVYLQMNSLKPEDTAVYYCAADVWYGSTWRNWGQGTQVTVSS , field koff: 0.08

Record TIGIT-30-30 VHH-V5-His (VHH, not shown: V5-His tag) VHH: EVQLVESGGGLVQAGGSLRLSCAASGGTFSGRGMGWFRQAPGKEREWVSSVYIFGGSTYYADSVKGRFTISADNAKNTVYLQMNSLKPEDTAVYYCANSNKPKFDWGQGTQVTVSS , field koff: 0.006
